System: LOC_OS06G22820-cb001;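 note: purified Escherichia coli-expressed rice kinase domain construct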
Sequence (as listed by the source): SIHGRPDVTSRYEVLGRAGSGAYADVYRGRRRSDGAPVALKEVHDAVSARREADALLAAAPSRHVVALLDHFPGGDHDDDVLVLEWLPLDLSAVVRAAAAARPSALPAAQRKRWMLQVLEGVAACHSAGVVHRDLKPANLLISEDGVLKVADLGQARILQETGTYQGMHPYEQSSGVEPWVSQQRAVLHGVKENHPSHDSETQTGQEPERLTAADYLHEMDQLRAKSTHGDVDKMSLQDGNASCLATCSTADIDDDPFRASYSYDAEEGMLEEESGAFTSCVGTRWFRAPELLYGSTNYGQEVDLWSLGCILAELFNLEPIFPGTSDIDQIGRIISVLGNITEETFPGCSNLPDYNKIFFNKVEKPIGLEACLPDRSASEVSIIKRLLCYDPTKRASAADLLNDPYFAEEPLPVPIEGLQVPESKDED
Experiment: thermal shift delta Tm vs DMSO control; higher = stronger stabilization (binding)
Conditions: 12.5 µM; protein concentration 2 µM
Please mark y if the recorded thermal shift delta Tm is equal to or greater than 0.6 °C, and n if it falls below.

For orientation, consider the following solved cases.
CN(C)CCOc1ccc(-c2nc(-c3ccncc3)c(-c3ccc4c(c3)CC/C4=N\O)[nH]2)cc1 | n
COc1ccc(COc2cc3oc(=O)c4cc(C(C)O)ccc4c3cc2OC)cc1 (stereo unspecified) [Palomid 529 (P529)] | y

Exam item: decide whether the reported thermal shift delta Tm for OC(c1cc(-c2ccc(Cl)cc2)nc2ccccc12)C1CCCCN1 (stereo unspecified) [Vacquinol-1] is at least 0.6 °C.
n

For this compound, is measured thermal shift delta Tm 0.6 °C or higher? "C=CC(=O)Nc1cc(Nc2nccc(-c3c[nH]c4ccccc34)n2)c(OC)cc1N(C)CCN(C)C"
n

Evaluate NC(=O)c1ccc2nc(-c3ccc(Oc4ccc(Cl)cc4)cc3)[nH]c2c1 [Chk2 Inhibitor II (BML-277)] : thermal shift delta Tm at minimum 0.6 °C?
y

Please check the record C[C@H]1[C@H](C)CC[C@]2(C(=O)O)CC[C@]3(C)C(=CC[C@@H]4[C@@]5(C)C[C@@H](O)[C@H](O)[C@@](C)(CO)[C@@H]5CC[C@]43C)[C@H]12 [Asiatic Acid] and state if its thermal shift delta Tm is at or above 0.6 °C.
y

Hi team, for "Cc1nc(N)sc1-c1ccnc(Nc2ccc(N3CCOCC3)cc2)n1" , is the recorded thermal shift delta Tm at or above 0.6 °C?
y

Could you please find out whether "Cc1csc(-c2nnc(Nc3ccc(Oc4ncccc4-c4ccnc(N)n4)cc3)c3ccccc23)c1" has thermal shift delta Tm that meets 0.6 °C or exceeds it?
y

Given the entry COc1cc2c(N3CCN(C(=O)Nc4ccc(OC(C)C)cc4)CC3)ncnc2cc1OCCCN1CCCCC1 [Tandutinib (MLN518)] , answer whether its thermal shift delta Tm meets or surpasses 0.6 °C.
n

Test whether the compound O=c1c(O)c(-c2ccc(O)c(O)c2)oc2cc(O)cc(O)c12 [Quercetin] records thermal shift delta Tm of 0.6 °C or higher.
y

hey, is thermal shift delta Tm for this one >= 0.6 °C? "Cn1nccc1Nc1nccc(-c2ccn([C@H](CO)c3ccc(Cl)c(F)c3)c(=O)c2)n1"
n

Form field: thermal shift delta Tm at least 0.6 °C? Entry: O=C1NC(=O)[C@@H](c2cn3c4c(cccc24)CCC3)[C@@H]1c1c[nH]c2ccccc12 [Tivantinib (ARQ 197)]
y
